Provenance of the data: PubChem BioAssay (NCATS)

system: DFO2036; assay: qHTS profiling for inhibitors of Plasmodium falciparum proliferation (AID 504749); further: nearly all actives have a fitted effect of over 60% in size; conditions: P. falciparum in erythrocytes, SYBR Green DNA, 72 h; series mostly up to 28.7 µM
Records with an inconclusive call do not appear. Activity calls are given as the source filed them. The call rests on the fitted dose curve; in most records, active means well fitted inhibition curve with a large enough effect; inconclusive means small, poorly fitted or top-dose-only effect; inactive means flat fitted curve, though single readings scatter.
The categories you may choose from are active, inactive

Here are 5 compounds together with their reported answers.
>  <compound>
Cc1[nH]c(=O)c(C#N)cc1-c1ccncc1

>  <assigned-label>
inactive

$$$$
>  <compound>
CN1CCN(CCCN2c3ccccc3Sc3ccc(C(F)(F)F)cc32)CC1

>  <assigned-label>
active

$$$$
>  <compound>
NCCCC(N)(C(=O)O)C(F)F (centres undefined)

>  <assigned-label>
inactive

$$$$
>  <compound>
COc1ccc2nc(S(=O)Cc3ncc(C)c(OC)c3C)[nH]c2c1 (centres undefined)

>  <assigned-label>
inactive

$$$$
>  <compound>
CCCCNc1cc(C(=O)O)cc(S(N)(=O)=O)c1Oc1ccccc1

>  <assigned-label>
inactive

$$$$

Ask: Hi, do you know how Cc1c(C)c2c(c(C)c1O)CCC(C)(COc1ccc(CC3SC(=O)NC3=O)cc1)O2 (centres undefined) came out in this test?
Reply: inactive

Ask: Could you check what this test reported for Cc1[nH]c(=O)c(C#N)cc1-c1ccc2nccn2c1 ?
Reply: inactive

Ask: Look up the recorded call for N#Cc1ccc(C(c2ccc(C#N)cc2)n2cncn2)cc1 in this test.
Reply: inactive

Ask: Each compound tested received a call. Report the one for Nc1nc2c(ncn2COCCO)c(=O)[nH]1 .
Reply: inactive

###

experiment: qHTS Assay for Lipid Storage Modulators (AID 1519); details: Drosophila S3 cells, BODIPY lipid droplet/cell ratio, laser cytometry; measured here: cell count channel max response; cells loaded with oleic acid
Results filed as inconclusive are left out.
experimental-readout: max response (%)
Record the value in %, omitting the unit from your answer.

>  <compound>
O=NN(CCCl)C(=O)NCCCl

>  <quantity-unit>
%

>  <max response>
-3.08

$$$$

GET /value?item= CCOC(=O)N1CCC(=C2c3ccc(Cl)cc3CCc3cccnc32)CC1 &field=max response returns 1.57

###

experiment: Quantitative High-Throughput drug screen in 47 multiple myeloma cell lines against the NCATS MIPE library collection: INA6_PLB cell viability assay (AID 1918965; further: nearly all actives have a fitted effect of over 55% in size); details: INA6 myeloma viability, CellTiter-Glo ATP luminescence, 48 h; series mostly up to 45.8 µM
Inconclusive results are not listed. The source made the active and inactive calls. Calls come from the whole dose curve; as a rule, active = well fitted cell-killing curve with a large enough effect; inconclusive = small, poorly fitted or top-dose-only effect, or effect the other way; inactive = no such curve, though single readings can be large or run the other way.
I would appreciate it if you answered using one of these outcomes: active, inactive

As a guide, the following entries are already answered.
>  <line-notation>
Cc1c(CCOc2ccc(C(=O)O)cc2)c2cc(Cl)ccc2n1C(c1ccccc1)c1ccccc1

>  <assigned-label>
inactive

$$$$
>  <line-notation>
N=c1nc(N2CCCCC2)cc(N)n1O

>  <assigned-label>
active

$$$$
>  <line-notation>
O=c1ncn2nc(Sc3ccc(F)cc3F)ccc2c1-c1c(Cl)cccc1Cl

>  <assigned-label>
active

$$$$

Proceed to the following item.
Ask: Hi, sorry to bother you, what did the test record for CCCS(=O)(=O)Nc1ccc(F)c(C(=O)c2c[nH]c3ncc(Cl)cc23)c1F ?
Reply: active

###

tested on: DIV14; assay: qHTS profiling for inhibitors of Plasmodium falciparum proliferation (AID 504749); further: nearly all actives have a fitted effect of over 60% in size; settings: P. falciparum in erythrocytes, SYBR Green DNA, 72 h; series mostly up to 28.7 µM
Inconclusive results are not listed. The source made the active and inactive calls. The call rests on the fitted dose curve; in most records, active means well fitted inhibition curve with a large enough effect; inconclusive means small, poorly fitted or top-dose-only effect; inactive means flat fitted curve, though single readings scatter.
The categories you may choose from are 1 (yes) = active, 0 (no) = inactive

Illustrative cases are given below, each with its answer.
>  <molecule>
N=c1nc(N2CCCCC2)cc(N)n1O

>  <assigned-label>
0 (no)

$$$$
>  <molecule>
N#Cc1ccc(C(c2ccc(C#N)cc2)n2cncn2)cc1

>  <assigned-label>
0 (no)

$$$$
>  <molecule>
Cc1c(C)c2c(c(C)c1O)CCC(C)(COc1ccc(CC3SC(=O)NC3=O)cc1)O2 (stereo not given)

>  <assigned-label>
1 (yes)

$$$$
>  <molecule>
NS(=O)(=O)c1cc2c(cc1Cl)NC=NS2(=O)=O

>  <assigned-label>
0 (no)

$$$$

Switching to the query record.
Ask: Query: recorded result category for OC(CN1CCC(Cc2ccc(F)cc2)CC1)c1ccc(Cl)cc1 (stereo not given) in this test
Reply: 1 (yes)

###

experiment: qHTS Screen of the MIPE 4.0 Collection Against Ewings Sarcoma (TC71) (AID 1259253); conditions: TC71 Ewing sarcoma viability, CellTiter-Glo, 48 h; series mostly up to 45.8 µM; further: nearly all actives have a fitted effect of over 40% in size
Results filed as inconclusive are left out. Calls of active or inactive are those of the source. Calls come from the whole dose curve; as a rule, active = well fitted inhibition curve with a large enough effect; inconclusive = small, poorly fitted or top-dose-only effect; inactive = no such curve, though single readings can be large or run the other way.
Your answer must be one of the following: active, inactive

>  <molecule>
CC(=O)NC(C)c1ccc(Oc2ccc(OC(C)C)cc2)cc1 (centres undefined)

>  <assigned-label>
active

$$$$
>  <molecule>
OC(CCN1CCCCC1)(c1ccccc1)C1CC2C=CC1C2 (centres undefined)

>  <assigned-label>
inactive

$$$$
>  <molecule>
O=C(c1cc(Cc2n[nH]c(=O)c3ccccc23)ccc1F)N1CCN(C(=O)C2CC2)CC1

>  <assigned-label>
active

$$$$
>  <molecule>
Nc1ccc(S(=O)(=O)Nc2ccnn2-c2ccccc2)cc1

>  <assigned-label>
inactive

$$$$
>  <molecule>
Cn1c(=O)c(F)c(Nc2ccc(I)cc2F)c2c(=O)n(C[C@@H](O)CO)cnc21

>  <assigned-label>
inactive

$$$$
>  <molecule>
CCCCCCCc1ccc(CCc2cccc(O)c2C(=O)O)cc1

>  <assigned-label>
active

$$$$
>  <molecule>
CS(=O)(=O)c1cccc(CNc2nc(Nc3ccc4c(c3)CCC(=O)N4)ncc2C(F)(F)F)c1

>  <assigned-label>
active

$$$$
>  <molecule>
CCCc1nn(C)c2c(=O)[nH]c(-c3cc(S(=O)(=O)N4CCN(C)CC4)ccc3OCC)nc12

>  <assigned-label>
active

$$$$
>  <molecule>
NC(=O)c1ccc(-c2nc(-c3ccc4c(c3)OCO4)c(-c3ccccn3)[nH]2)cc1

>  <assigned-label>
active

$$$$
>  <molecule>
O=C(Nc1cccnc1)N1CCC(Cc2cccc(Oc3ccc(C(F)(F)F)cn3)c2)CC1

>  <assigned-label>
active

$$$$

Ask: Which outcome was assigned to Cc1[nH]c(=O)c(C#N)cc1-c1ccc2nccn2c1 in this test?
Reply: inactive

Ask: Which outcome was assigned to Cc1cnc(NC(=O)C2=C(O)c3ccccc3S(=O)(=O)N2C)s1 in this test?
Reply: inactive

Ask: Tell me the recorded outcome of this test for CCc1ccc(CCOc2ccc(CC3SC(=O)NC3=O)cc2)nc1 (centres undefined) .
Reply: active

Ask: Test call for this molecule, please: CN1CCN(CCCN2c3ccccc3Sc3ccc(C(F)(F)F)cc32)CC1
Reply: active

###

assay: Primary qHTS for inhibitors of nuclear receptor binding SET domain protein 2 (NSD2) in an isogenic RCH-ACV NSD2 p.E1099K mutant (9B) (AID 1645876); details: RCH-ACV (leukaemia line) NSD2 E1099K (9B) viability, CellTiter-Glo, 72 h; series mostly up to 44.9 µM; further: nearly all actives have a fitted effect of over 70% in size
Results filed as inconclusive are left out. Activity calls are given as the source filed them. Calls follow the shape of the dose curve; as a rule, active = well fitted inhibition curve with a large enough effect; inconclusive = small, poorly fitted or top-dose-only effect; inactive = flat fitted curve, though single readings scatter.

>  <compound>
CC(C)(C)NCC(O)c1ccc(O)c(CO)c1 (stereo not drawn)

>  <outcome>
inactive

$$$$
>  <compound>
CN(C)c1ccc(C2Nc3ccc4ccccc4c3C3=C2C(=O)CC(C)(C)C3)cc1Br (stereo not drawn)

>  <outcome>
inactive

$$$$
>  <compound>
C[C@]12CCC(=O)C=C1CC[C@@H]1[C@@H]2[C@@H](O)C[C@@]2(C)[C@H]1CC[C@]2(O)C(=O)CO

>  <outcome>
inactive

$$$$

###

tested on: TAB109; assay: qHTS profiling for inhibitors of Plasmodium falciparum proliferation (AID 504749); further: nearly all actives have a fitted effect of over 60% in size; conditions: P. falciparum in erythrocytes, SYBR Green DNA, 72 h; series mostly up to 28.7 µM
Results filed as inconclusive are left out. Calls of active or inactive are those of the source. Calls follow the shape of the dose curve; as a rule, active = well fitted inhibition curve with a large enough effect; inconclusive = small, poorly fitted or top-dose-only effect; inactive = flat fitted curve, though single readings scatter.
One label from this list, please: 1 (yes) for active, 0 (no) for inactive

>  <line-notation>
Cc1ccc(N(CC2=NCCN2)c2cccc(O)c2)cc1

>  <assigned-label>
0 (no)

$$$$
>  <line-notation>
Cc1oncc1C(=O)Nc1ccc(C(F)(F)F)cc1

>  <assigned-label>
0 (no)

$$$$
>  <line-notation>
O=NN(CCCl)C(=O)NCCCl

>  <assigned-label>
0 (no)

$$$$
>  <line-notation>
NC(N)=NC(=O)c1nc(Cl)c(N)nc1N

>  <assigned-label>
1 (yes)

$$$$

# ---- query compound ----
Ask: Please share the test call associated with O=C1CCc2cc(OCCCCc3nnnn3C3CCCCC3)ccc2N1 .
Reply: 0 (no)

###

Assay: qHTS of pediatric cancer cell lines to identify multiple opportunities for drug repurposing: Primary screen for RD cells (AID 1347104); further: nearly all actives have a fitted effect of over 55% in size
Details: RD rhabdomyosarcoma viability, CellTiter-Glo luminescence, 48 h; series mostly up to 46 µM
Method: Drug repurposing or repositioning has been offered as a strategy for drug development in oncology programs. This approach has special potential for childhood cancers and other rare or orphan diseases, where the expected return on new drug development has been a disincentive to pharmaceuticals. […] We employed a titration-based paradigm (quantitative high-throughput screening or qHTS), where all compounds were tested at multiple concentrations for their effect on cell viability. […]
Inconclusive results are not listed. Active and inactive are the calls of the source. The call rests on the fitted dose curve; in most records, active means well fitted cell-killing curve with a large enough effect; inconclusive means small, poorly fitted or top-dose-only effect; inactive means flat fitted curve, though single readings scatter.
Respond only with the outcome that fits, drawn from 1 (active), 0 (inactive)

Ask: For CCC(=O)N[C@H]1CC[C@H](C(=O)N(C)c2ccc(-c3nc4ccccc4o3)cc2)C1 , what call appears in the results of this test?
Reply: 1

Ask: Name the outcome recorded for CC(C)(C)NCC(O)c1ccc(O)c(CO)c1 (centres undefined) in the assay.
Reply: 0

Ask: // param item: COc1cc2nccc(Oc3ccc(NC(=O)NC4CC4)c(Cl)c3)c2cc1C(N)=O ; yields the recorded call
Reply: 1

Ask: Which result was noted for this molecule in the test: CO[C@@H]1[C@H](N(C)C(=O)c2ccccc2)C[C@H]2O[C@]1(C)n1c3ccccc3c3c4c(c5c6ccccc6n2c5c31)C(=O)NC4
Reply: 0

Ask: What call does the record list for NC(N)=NC(=O)c1nc(Cl)c(N)nc1N ?
Reply: 0
